All figures here come from DBAASP.

// Staphylococcus aureus ATCC 25923 MIC records
Please reply with the bare figure in µM and do not write the unit itself.

Answered cases to consult:
CC(C)C[C@H](NC(=O)[C@H](Cc1ccccc1)NC(=O)[C@H](CCCCN)NC(=O)[C@H](Cc1c[nH]c2ccccc12)NC(=O)[C@H](Cc1c[nH]c2ccccc12)NC(=O)[C@H](CCCN=C(N)N)NC(=O)[C@H](CCCCN)NC(=O)[C@H](CC(C)C)NC(=O)[C@@H](N)CCCN=C(N)N)C(=O)O [RLKRWWKFL] :: 2.4
CC[C@H](C)[C@H](NC(=O)[C@H](Cc1ccccc1)NC(=O)[C@@H](N)Cc1ccccc1)C(=O)N[C@@H](Cc1ccc(O)cc1)C(=O)N[C@H](C(=O)N[C@@H](Cc1c[nH]c2ccccc12)C(=O)N[C@@H](CCCN=C(N)N)C(=O)N[C@@H](CCCN=C(N)N)C(=O)N[C@@H](CCCN=C(N)N)C(=O)O)C(C)C [FFIYVWRRR] :: 1.9

Task: For the compound CC[C@H](C)[C@H](NC(=O)[C@H](CC(N)=O)NC(=O)[C@H](CCCCN)NC(=O)[C@H](CC(C)C)NC(=O)[C@H](CC(C)C)NC(=O)CN)C(=O)N[C@@H](CCCCN)C(=O)N[C@H](C(=O)N[C@@H](CC(C)C)C(=O)N[C@@H](CC(C)C)C(N)=O)[C@@H](C)O [GLLKNIKTLL] , report MIC.
Result: 62

====

# Tested on: Proteus vulgaris
readout.type: MIC (µM)
Respond with the bare value in µM.

Answered cases to consult:
CC[C@H](C)[C@H](NC(=O)[C@H](CCCCN)NC(=O)[C@H](CCCCN)NC(=O)[C@@H](N)Cc1c[nH]c2ccccc12)C(=O)N1CCC[C@H]1C(=O)N[C@@H](CCCCN)C(=O)N[C@@H](Cc1ccccc1)C(=O)N[C@@H](CC(C)C)C(=O)N[C@@H](Cc1cnc[nH]1)C(=O)N[C@@H](CC(C)C)C(=O)N[C@@H](CC(C)C)C(=O)N[C@@H](CCCCN)C(=O)N[C@@H](CCCCN)C(=O)N[C@@H](Cc1ccccc1)C(N)=O [WKKIPKFLHLLKKF] :: 12.5
CC[C@H](C)[C@H](NC(=O)[C@H](CCCCN)NC(=O)[C@H](CO)NC(=O)[C@H](Cc1ccccc1)NC(=O)[C@H](CC(C)C)NC(=O)[C@H](CCCCN)NC(=O)[C@H](CCC(=O)O)NC(=O)[C@H](CC(C)C)NC(=O)[C@H](CCCN=C(N)N)NC(=O)[C@H](CCCCN)NC(=O)[C@H](Cc1ccccc1)NC(=O)[C@@H](NC(=O)[C@H](CCCCN)NC(=O)[C@H](CCCCN)NC(=O)[C@H](C)N)C(C)C)C(=O)N[C@@H](CCC(N)=O)C(=O)N[C@@H](CC(N)=O)C(=O)N[C@@H](CC(=O)O)C(=O)N[C@@H](CCCCN)C(N)=O [AKKVFKRLEKLFSKIQNDK] :: 4.42

Consider the additional compound presented here.
Task: Provide MIC, tested on Proteus vulgaris, for CC[C@H](C)[C@H](NC(=O)[C@H](CCCCN)NC(=O)[C@H](CO)NC(=O)[C@H](Cc1ccccc1)NC(=O)[C@H](CO)NC(=O)[C@H](CCCCN)NC(=O)[C@H](CCC(=O)O)NC(=O)[C@H](CC(C)C)NC(=O)[C@H](CCCN=C(N)N)NC(=O)[C@H](CCCCN)NC(=O)[C@H](Cc1ccccc1)NC(=O)[C@@H](NC(=O)[C@H](CCCCN)NC(=O)[C@H](CCCCN)NC(=O)[C@H](C)N)C(C)C)C(=O)N[C@@H](CCC(N)=O)C(=O)N[C@@H](CC(N)=O)C(=O)N[C@@H](CC(=O)O)C(=O)N[C@@H](CCCCN)C(N)=O [AKKVFKRLEKSFSKIQNDK] .
Result: 12.5

====

Read-out record for Escherichia coli: MIC
API: value field is a number in µM; no unit string.

CC[C@H](C)[C@H](N)C(=O)N[C@@H](CC(N)=O)C(=O)N[C@@H](Cc1c[nH]c2ccccc12)C(=O)N[C@@H](CCCCN)C(=O)N[C@@H](CCCCN)C(=O)N[C@H](C(=O)N[C@@H](C)C(=O)N[C@@H](CO)C(=O)N[C@H](C(=O)NCC(=O)N[C@@H](CCCCN)C(=O)N[C@@H](CCC(=O)O)C(=O)N[C@H](C(=O)N[C@@H](CC(C)C)C(=O)N[C@@H](CCCCN)C(=O)N[C@@H](C)C(N)=O)C(C)C)[C@@H](C)CC)[C@@H](C)CC [INWKKIASIGKEVLKA] :: 75
CSCC[C@H](N=C(O)[C@H](CC(C)C)N=C(O)CN)C(O)=N[C@@H](CO)C(O)=N[C@H](C(O)=N[C@@H](CC(C)C)C(O)=NCC(O)=N[C@@H](Cc1cnc[nH]1)C(O)=N[C@@H](C)C(O)=N[C@H](C(O)=NCC(O)=N[C@@H](CC(=N)O)C(O)=N[C@H](C(O)=N[C@@H](CC(C)C)C(O)=NCC(O)=NCC(O)=N[C@@H](CC(C)C)C(O)=N[C@@H](Cc1ccccc1)C(O)=N[C@@H](CCCCN)C(=O)N1CCC[C@H]1C(O)=N[C@@H](CCCCN)C(=O)O)C(C)C)C(C)C)C(C)C [GLMSVLGHAVGNVLGGLFKPKS] :: 22.9
CC(C)C[C@H](NC(=O)[C@H](CC(C)C)NC(=O)[C@H](CO)NC(=O)[C@H](Cc1cnc[nH]1)NC(=O)[C@H](CO)NC(=O)[C@H](CC(C)C)NC(=O)[C@H](CC(C)C)NC(=O)[C@@H](N)CCCCN)C(=O)O [KLLSHSLL] :: 68
CC(C)C[C@H](NC(=O)[C@@H](N)Cc1ccccc1)C(=O)N[C@@H](CCCCN)C(=O)N[C@H](C(=O)N[C@H](C(=O)N[C@@H](Cc1ccccc1)C(=O)N[C@@H](CCCCN)C(=O)N[C@@H](CCCCN)C(=O)N[C@@H](C)C(=O)N[C@@H](CO)C(=O)N[C@@H](CCCCN)C(=O)N[C@H](C(=O)N[C@@H](Cc1ccccc1)C(=O)N1CCC[C@H]1C(=O)N[C@@H](C)C(=O)N[C@H](C(=O)N[C@@H](Cc1ccccc1)C(=O)NCC(=O)N[C@@H](CCCCN)C(=O)N[C@H](C(=O)O)C(C)C)C(C)C)C(C)C)C(C)C)C(C)C [FLKVVFKKASKVFPAVFGKV] :: 57.1
C[C@@H](O)[C@H](NC(=O)[C@H](CCCN=C(N)N)NC(=O)[C@H](Cc1c[nH]c2ccccc12)NC(=O)[C@H](CCCN=C(N)N)NC(=O)[C@@H](NC(=O)[C@H](CCCN=C(N)N)NC(=O)[C@H](Cc1c[nH]c2ccccc12)NC(=O)[C@H](CCCN=C(N)N)NC(=O)[C@@H](NC(=O)[C@H](CCCN=C(N)N)NC(=O)[C@@H](N)Cc1c[nH]c2ccccc12)[C@@H](C)O)[C@@H](C)O)C(=O)N[C@@H](CCCN=C(N)N)C(N)=O [WRTRWRTRWRTR] :: 2
CC(C)[C@H](NC(=O)[C@H](CCCCN)NC(=O)[C@H](Cc1c[nH]c2ccccc12)NC(=O)[C@H](CCCCN)NC(=O)[C@@H](NC(=O)[C@H](CCCCN)NC(=O)[C@H](Cc1c[nH]c2ccccc12)NC(=O)[C@H](CCCCN)NC(=O)[C@@H](NC(=O)[C@H](CCCCN)NC(=O)[C@@H](N)Cc1c[nH]c2ccccc12)C(C)C)C(C)C)C(=O)N[C@@H](CCCCN)C(N)=O [WKVKWKVKWKVK] :: 1
CC(C)C[C@H](NC(=O)[C@H](CCCCN)NC(=O)[C@H](Cc1ccccc1)NC(=O)[C@@H](NC(=O)[C@H](CCCCN)NC(=O)CNC(=O)[C@H](CC(C)C)NC(=O)[C@@H](N)Cc1ccccc1)C(C)C)C(=O)N[C@@H](C)C(=O)N[C@@H](CO)C(=O)N[C@@H](CCCCN)C(=O)N[C@H](C(=O)N[C@@H](Cc1ccccc1)C(=O)N1CCC[C@H]1C(=O)N[C@@H](CCCCN)C(=O)N[C@H](C(=O)N[C@@H](Cc1ccccc1)C(=O)NCC(=O)N[C@@H](CCCCN)C(=O)N[C@H](C(=O)O)C(C)C)C(C)C)C(C)C [FLGKVFKLASKVFPKVFGKV] :: 7.14

--- query ---
Task: Fill: MIC (Escherichia coli) for this molecule CC[C@H](C)[C@H](NC(=O)[C@@H]1CCCN1C(=O)[C@H](CC(C)C)NC(=O)[C@H](CC(C)C)NC(=O)[C@H](Cc1ccc(O)cc1)NC(=O)[C@H](CCCCN)NC(=O)[C@@H](N)CCCCN)C(=O)N[C@H](C(=O)NCC(=O)N[C@@H](CC(N)=O)C(=O)N[C@@H](CC(C)C)C(=O)N[C@@H](CC(C)C)C(=O)N[C@@H](CCCCN)C(=O)N[C@@H](CO)C(=O)N[C@@H](CC(C)C)C(=O)N[C@@H](CC(C)C)C(N)=O)C(C)C [KKYLLPIVGNLLKSLL]
Result: 11
